For each record, write down the corresponding koff.
Biological target: T1, ANTIBODY EXPRESSION CONTROL
T1 construct: also called mouse anti-canine antibody (capture reagent of the expression control ELISA)
Assay: SPR Biacore, expression control
Protocol: The affinity with which candidate mAbs bind canine, feline, and human (SEQ ID NO: 122; Human_OSMR) (R&D Systems, Minneapolis, Minn.) OSMR was determined using surface plasmon resonance (SPR) on a Biacore system (Biacore Life Sciences (GE Healthcare), Uppsala, Sweden). […] Chips were quenched with ethanolamine and the affinity with which all candidate mAbs bound to the immobilized OSMR was evaluated. […]
Report the figure in s⁻¹ without appending any unit label.

May I ask what koff has been recorded for Mu_10F07_VH (SEQ ID NO: 39)_Y107A (antibody, V domains shown) VH: DVKLVESGEGLVKPGGSLKLSCAASGFTFSSYAMSWVRQTPEKRLEWVTYISSGGDYFYYADTVKGRFTISRDNARNTLYLQMSSLKSEDTAMYYCTRDPITGTFAAWGQGTLVTVSA VL: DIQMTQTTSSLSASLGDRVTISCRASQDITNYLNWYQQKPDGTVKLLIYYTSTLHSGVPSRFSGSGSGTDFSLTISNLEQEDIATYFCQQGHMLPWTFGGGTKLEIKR ? 4.44e-05

// next record Mu_02D09_VH (SEQ ID NO: 31)_D99A (antibody, V domains shown) VH: EVQLVESGGGLVKPGGSLTLSCAASGFTFSDYGMHWLRQAPEKGLEWVAYISSGSRAVFFADTVKGRFTISRDNAKNTLFLQMTSLRSDDTAMYYCARARYDGRGFAYWGQGTLVTVSA VL: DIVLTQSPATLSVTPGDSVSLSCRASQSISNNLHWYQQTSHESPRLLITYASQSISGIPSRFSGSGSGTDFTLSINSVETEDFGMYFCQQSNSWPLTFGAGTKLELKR 0.000384

Next entry: mouse: canine 02D09 chimera (antibody, V domains shown, Mouse variable domains on canine IgG constant regions; also called 02D09 (Mouse:Canine); chimeric 02D09) VH: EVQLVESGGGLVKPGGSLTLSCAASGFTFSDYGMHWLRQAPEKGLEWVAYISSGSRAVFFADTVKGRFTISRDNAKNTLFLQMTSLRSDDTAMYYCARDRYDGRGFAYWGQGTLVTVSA VL: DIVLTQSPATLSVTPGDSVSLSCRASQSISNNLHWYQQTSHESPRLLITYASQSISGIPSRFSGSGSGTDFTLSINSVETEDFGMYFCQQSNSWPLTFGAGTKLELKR 9.15e-05

Proceed to Mu_19F07_VH (SEQ ID NO: 47)_Y60A (antibody, V domains shown) VH: EVKLVESEGGLVQPGSSMKLSCTASGFTFSDYYMAWVRQVPEKGLEWVANINYDGSSTYALDSLKSRFIISRDNAKNILYLQMSSLKSEDTATYYCARGLTWDFDVWGTGTTVTVSS VL: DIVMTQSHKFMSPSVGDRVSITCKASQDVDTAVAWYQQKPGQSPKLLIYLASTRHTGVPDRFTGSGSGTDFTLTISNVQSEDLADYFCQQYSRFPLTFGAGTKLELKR 0.00061

Same read-out for Mu_19F07_VH (SEQ ID NO: 47)_F104A (antibody, V domains shown) VH: EVKLVESEGGLVQPGSSMKLSCTASGFTFSDYYMAWVRQVPEKGLEWVANINYDGSSTYYLDSLKSRFIISRDNAKNILYLQMSSLKSEDTATYYCARGLTWDADVWGTGTTVTVSS VL: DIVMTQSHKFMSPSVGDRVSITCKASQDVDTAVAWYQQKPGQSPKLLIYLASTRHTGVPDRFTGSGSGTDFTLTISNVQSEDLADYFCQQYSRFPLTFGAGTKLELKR ? 5.09e-05
